Value source: paper PMC2756588

# System Name: T1, Boi2, P39969
# T1 sequence (P39969 32-116, looked up): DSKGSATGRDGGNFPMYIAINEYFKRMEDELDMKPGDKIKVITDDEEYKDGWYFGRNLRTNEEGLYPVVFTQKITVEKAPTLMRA
# Method Description: SPOT array
# Run Conditions: median of control spots 1161
Assay Metric: SPOT intensity
Output: the number by itself.

Some binders with known SPOT intensity results, for comparison:
# Binder, Assay Metric, Measured Number
measured = [
    ("KTKQQKPAIPQKKSF", "SPOT intensity", 0),
    ("RFKRHRLEFPFNESE", "SPOT intensity", 0),
]

Give the reported SPOT intensity for this binder. `TSFKGRPKPPKTLKH`
0

Determine from records and report SPOT intensity for `AERNYAPRLPRRETS`
0
